Molecular target: mTOR (Homo sapiens, UniProt P42345)
Test: Lanthascreen kinase binding assay, assay G
measurement type: IC50
Please answer using the number first and the unit second.

Q: What does the data say about its IC50? Entry: Cc1cc(-c2nc(-c3cc(S(=O)(=O)NCC(C)(C)O)ccc3C)cnc2N)on1
Ans: 9.1 µM

###

// IC50 lookup, one value per entry
Target: PI 3-kinase beta (Rat-1_PI3Kbeta cells, Myr-HA-hp110 beta) (Homo sapiens, UniProt P42338)
Sequence (P42338 whole entry): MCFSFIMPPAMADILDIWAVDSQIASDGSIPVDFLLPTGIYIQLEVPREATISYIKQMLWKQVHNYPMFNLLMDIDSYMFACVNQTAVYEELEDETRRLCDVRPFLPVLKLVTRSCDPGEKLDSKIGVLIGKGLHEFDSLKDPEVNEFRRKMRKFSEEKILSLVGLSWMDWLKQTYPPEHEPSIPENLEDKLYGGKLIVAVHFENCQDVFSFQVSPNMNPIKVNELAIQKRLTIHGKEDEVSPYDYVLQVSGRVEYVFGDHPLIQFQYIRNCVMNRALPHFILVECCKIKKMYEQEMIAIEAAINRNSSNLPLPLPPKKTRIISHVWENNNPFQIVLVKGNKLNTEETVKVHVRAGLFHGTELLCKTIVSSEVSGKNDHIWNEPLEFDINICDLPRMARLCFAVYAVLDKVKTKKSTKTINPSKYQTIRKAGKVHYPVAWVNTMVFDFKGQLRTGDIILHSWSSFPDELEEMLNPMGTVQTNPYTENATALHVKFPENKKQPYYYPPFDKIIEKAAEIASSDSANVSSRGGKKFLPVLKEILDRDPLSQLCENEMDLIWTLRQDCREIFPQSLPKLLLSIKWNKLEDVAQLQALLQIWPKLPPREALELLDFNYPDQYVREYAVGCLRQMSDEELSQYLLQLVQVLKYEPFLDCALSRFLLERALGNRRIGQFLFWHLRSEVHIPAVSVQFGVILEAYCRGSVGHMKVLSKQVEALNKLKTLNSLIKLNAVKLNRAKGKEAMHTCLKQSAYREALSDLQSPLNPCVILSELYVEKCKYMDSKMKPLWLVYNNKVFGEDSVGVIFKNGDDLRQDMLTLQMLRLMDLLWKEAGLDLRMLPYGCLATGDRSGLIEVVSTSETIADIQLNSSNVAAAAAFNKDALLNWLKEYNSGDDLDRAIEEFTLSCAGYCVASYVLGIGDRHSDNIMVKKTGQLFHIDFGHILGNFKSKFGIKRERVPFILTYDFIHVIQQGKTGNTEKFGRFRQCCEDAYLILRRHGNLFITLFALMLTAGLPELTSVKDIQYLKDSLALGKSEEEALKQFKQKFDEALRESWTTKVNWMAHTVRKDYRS
Test: Cellular p-Akt (S473) assay, Surefire format, assay I1
Conditions: non-asterisked data: version I1 (Surefire format); read-out: Assay I PI3Kβ IC50
Write the value in µM as a bare number.

Below are worked cases with known answers.
entry smiles | numeric result
Cc1ncc(-c2nc(-c3cc(S(=O)(=O)NCCC(C)(C)O)ccc3C)cnc2N)o1 | 8.16
Cc1ccc(S(=O)(=O)NCCC(C)(C)O)cc1-c1cnc(N)c(-c2cncnc2)n1 | 4.86
Cc1ccc(S(=O)(=O)NCCC(C)(C)O)cc1-c1cnc(N)c(-c2ccnc(F)c2)n1 | 2.59

Q: I'm curious: which IC50 was measured for Cc1nc(-c2nc(-c3cc(S(=O)(=O)NCCC(C)(C)O)ccc3C)cnc2N)cs1 tested on PI 3-kinase beta (Rat-1_PI3Kbeta cells, Myr-HA-hp110 beta) (Homo sapiens, UniProt P42338)?
Ans: 6.99

###

// IC50 lookup, one value per entry
Molecular target: PI 3-kinase alpha (Rat-1_PI3Kalpha cells, Myr-HA-hp110 alpha) (Homo sapiens)
Sequence (P42336 whole entry): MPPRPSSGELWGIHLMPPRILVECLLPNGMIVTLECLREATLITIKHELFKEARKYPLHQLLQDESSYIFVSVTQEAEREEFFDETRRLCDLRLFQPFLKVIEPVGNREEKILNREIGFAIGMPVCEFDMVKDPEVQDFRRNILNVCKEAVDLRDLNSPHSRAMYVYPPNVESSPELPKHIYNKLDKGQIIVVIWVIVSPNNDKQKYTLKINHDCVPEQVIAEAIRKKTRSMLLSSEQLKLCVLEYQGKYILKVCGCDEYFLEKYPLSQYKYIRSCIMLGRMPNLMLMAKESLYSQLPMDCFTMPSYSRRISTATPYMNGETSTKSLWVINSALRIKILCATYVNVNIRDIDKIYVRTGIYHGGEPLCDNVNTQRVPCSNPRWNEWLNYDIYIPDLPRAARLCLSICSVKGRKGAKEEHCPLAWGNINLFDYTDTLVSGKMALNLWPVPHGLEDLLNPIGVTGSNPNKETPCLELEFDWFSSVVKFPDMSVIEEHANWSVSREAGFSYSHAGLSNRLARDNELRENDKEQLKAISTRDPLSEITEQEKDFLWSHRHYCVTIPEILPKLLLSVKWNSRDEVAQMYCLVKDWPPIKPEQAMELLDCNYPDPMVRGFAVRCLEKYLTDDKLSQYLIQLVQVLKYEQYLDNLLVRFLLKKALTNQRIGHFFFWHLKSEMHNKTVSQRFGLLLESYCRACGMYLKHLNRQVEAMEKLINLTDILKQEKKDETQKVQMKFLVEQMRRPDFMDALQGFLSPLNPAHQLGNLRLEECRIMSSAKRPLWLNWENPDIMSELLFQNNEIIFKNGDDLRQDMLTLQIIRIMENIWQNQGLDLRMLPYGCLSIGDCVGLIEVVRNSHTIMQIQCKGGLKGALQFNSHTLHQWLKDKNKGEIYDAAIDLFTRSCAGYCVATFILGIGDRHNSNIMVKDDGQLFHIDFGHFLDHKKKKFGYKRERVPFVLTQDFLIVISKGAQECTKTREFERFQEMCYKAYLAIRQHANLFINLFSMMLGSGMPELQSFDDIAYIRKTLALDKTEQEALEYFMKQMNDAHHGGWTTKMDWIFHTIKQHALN
Experiment: Cellular p-Akt (S473) assay, Surefire format, assay H1
Details: non-asterisked data: version H1 (Surefire format); read-out: Assay H PI3Kα IC50
Write the value in nM as a bare number.

Below are worked cases with known answers.
compound | unit symbol | IC50
Cc1cc(-c2nc(-c3cc(S(=O)(=O)NCCC(C)(O)C(F)(F)F)ccc3C)cnc2N)ccn1 (centres unmarked) | nM | 3000
Cc1nc(-c2nc(-c3cc(S(=O)(=O)NCCC(C)(C)O)ccc3C)cnc2N)cs1 | nM | 690
Cc1ccc(S(=O)(=O)NCCC(C)(C)O)cc1-c1cnc(N)c(-c2cncnc2)n1 | nM | 4950
Cc1ncc(-c2nc(-c3cc(S(=O)(=O)NCCC(C)(C)O)ccc3C)cnc2N)o1 | nM | 1100

Q: What does the data say about its IC50? Entry: Cc1ccc(S(=O)(=O)NCCC(C)(C)O)cc1-c1cnc(N)c(-c2ccnc(F)c2)n1
Ans: 630

###

// Assay M RLM CI(int) lookup, one value per entry
Test: Microsomal clearance assay, assay M
Format: in vitro ADME
Details: intrinsic clearance in rat liver microsomes
Write the value in µL/min/mg as a bare number.

Below are worked cases with known answers.
entry smiles | Assay M RLM CI(int) (µL/min/mg)
Cc1cc(-c2nc(-c3cc(S(=O)(=O)NC4CCOCC4)ccc3C)cnc2N)ccn1 | 78
Cc1nc(-c2nc(-c3cc(S(=O)(=O)NCCC(C)(C)O)ccc3C)cnc2N)cs1 | 77
Cc1ncc(-c2nc(-c3cc(S(=O)(=O)NCCC(C)(C)O)ccc3C)cnc2N)o1 | 56

Kindly review the next molecule as well.
Q: What does the data say about its Assay M RLM CI(int)? Entry: Cc1ccc(S(=O)(=O)N[C@@H]2CNC[C@H]2O)cc1-c1cnc(N)c(-n2cncn2)n1
Ans: 20
